# target: T1, LIN7A, O14910
# T1 sequence (O14910 103-200, limits assumed, looked up): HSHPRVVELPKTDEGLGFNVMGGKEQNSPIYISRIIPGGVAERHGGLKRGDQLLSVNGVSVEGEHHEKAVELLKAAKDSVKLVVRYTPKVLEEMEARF
# method: holdup assay
# Set-up: key: below the threshold = too weak to quantify, mostly under pKd 3.1 to 4
# experimental.context: plain residues with an end cap or a label only (N-terminal biotin on a linker: ado-ado)
result.type: pKd

KAEEKPPSKV [SCN4B, Q8IWT1]    below the threshold
ELKAEDEVQI [DCHS2, Q6V1P9]    below the threshold
KSRPENGTVC [TMEM178B, H3BS89]    below the threshold
IGHEDLETAV [DGKI, O75912]    4.07
